Origin of values: patent EP1184374A1

Target: GPIIb/IIIa (Homo sapiens, UniProt P05106+P08514)
Sequence (P08514 32-887 limits assumed): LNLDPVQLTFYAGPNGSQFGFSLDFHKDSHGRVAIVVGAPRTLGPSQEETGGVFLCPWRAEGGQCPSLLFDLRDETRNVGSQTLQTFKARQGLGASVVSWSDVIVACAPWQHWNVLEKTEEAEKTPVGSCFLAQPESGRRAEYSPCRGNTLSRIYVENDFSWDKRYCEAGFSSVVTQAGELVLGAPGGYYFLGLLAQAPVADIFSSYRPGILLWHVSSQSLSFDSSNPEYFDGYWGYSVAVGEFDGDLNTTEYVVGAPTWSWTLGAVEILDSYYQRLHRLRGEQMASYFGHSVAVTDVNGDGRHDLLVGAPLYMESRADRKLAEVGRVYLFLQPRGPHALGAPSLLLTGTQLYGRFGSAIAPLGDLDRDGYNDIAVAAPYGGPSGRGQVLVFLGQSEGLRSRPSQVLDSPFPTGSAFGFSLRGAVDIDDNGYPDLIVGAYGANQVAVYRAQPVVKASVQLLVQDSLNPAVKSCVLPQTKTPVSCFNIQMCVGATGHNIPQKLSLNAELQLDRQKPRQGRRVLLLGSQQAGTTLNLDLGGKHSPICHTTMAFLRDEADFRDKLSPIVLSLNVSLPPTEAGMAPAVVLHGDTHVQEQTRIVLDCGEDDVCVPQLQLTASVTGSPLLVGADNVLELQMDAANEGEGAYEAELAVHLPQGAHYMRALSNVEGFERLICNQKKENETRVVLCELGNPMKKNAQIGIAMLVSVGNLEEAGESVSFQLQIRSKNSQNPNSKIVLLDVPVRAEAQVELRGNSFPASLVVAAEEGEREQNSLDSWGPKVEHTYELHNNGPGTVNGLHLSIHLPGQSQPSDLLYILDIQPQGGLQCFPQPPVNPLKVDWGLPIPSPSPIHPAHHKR
Sequence (P08514 891-1039 partner limits assumed): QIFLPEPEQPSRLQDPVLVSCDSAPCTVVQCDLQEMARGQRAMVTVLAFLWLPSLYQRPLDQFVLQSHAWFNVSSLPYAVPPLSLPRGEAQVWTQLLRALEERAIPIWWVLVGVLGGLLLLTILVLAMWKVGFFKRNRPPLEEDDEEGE
Sequence (P05106 27-788): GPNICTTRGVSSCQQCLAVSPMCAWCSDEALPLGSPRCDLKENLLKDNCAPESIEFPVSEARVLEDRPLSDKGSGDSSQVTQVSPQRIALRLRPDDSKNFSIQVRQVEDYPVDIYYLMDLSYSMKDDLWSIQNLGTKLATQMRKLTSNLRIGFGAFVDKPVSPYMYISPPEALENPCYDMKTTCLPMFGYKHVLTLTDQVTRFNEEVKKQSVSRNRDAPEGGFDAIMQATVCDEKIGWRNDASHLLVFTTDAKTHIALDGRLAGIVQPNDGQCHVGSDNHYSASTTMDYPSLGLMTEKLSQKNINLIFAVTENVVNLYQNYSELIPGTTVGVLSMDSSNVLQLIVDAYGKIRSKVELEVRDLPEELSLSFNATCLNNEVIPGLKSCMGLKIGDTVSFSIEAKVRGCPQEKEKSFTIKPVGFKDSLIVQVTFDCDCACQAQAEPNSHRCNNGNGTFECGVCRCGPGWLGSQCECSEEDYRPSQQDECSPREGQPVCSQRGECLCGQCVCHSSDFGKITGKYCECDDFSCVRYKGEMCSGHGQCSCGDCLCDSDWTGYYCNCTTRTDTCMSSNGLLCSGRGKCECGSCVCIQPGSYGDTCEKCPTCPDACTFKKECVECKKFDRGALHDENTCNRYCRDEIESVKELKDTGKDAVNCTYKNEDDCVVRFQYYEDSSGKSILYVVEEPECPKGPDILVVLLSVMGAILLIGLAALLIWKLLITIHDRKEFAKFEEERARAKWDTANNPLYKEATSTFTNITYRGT
Assay: In vitro solid phase purified glycoprotein IIb/IIIa binding assay (biotinylated fibrinogen binding)
pIC50: −log10 of the molar value.
MEASUREMENT_LABEL: pIC50

INSERT INTO results (molecule, observed_result) VALUES
  ('O=C(N[C@@H](CNC(=O)[C@@H]1CCCN(C(=O)CCC2CCNCC2)C1)C(=O)O)OCc1cccc(Cl)c1 [Compound 24]', 9.40),
  ('O=C(O)CC(NC(=O)C1CCCCN(C(=O)CCC2CCNCC2)C1)c1cnc2ccccc2c1 (stereo not shown) [Compound 17]', 8.30),
  ('CC(CNC(=O)C1CCCN(C(=O)NCC2CCNCC2)C1)C(=O)O (stereo not shown) [Compound 2]', 7.57),
  ('O=C(O)CC(NC(=O)C1CCN(C(=O)CCC2CCNCC2)CC1)c1ccc(C(=O)O)cc1 (stereo not shown) [Compound 6]', 6.71);
